Cited source: patent US9988397B2

List of pIC50 tested on phosphorylated active hERK2 enzyme (Homo sapiens, UniProt P28482).
Sequence (P28482 whole entry): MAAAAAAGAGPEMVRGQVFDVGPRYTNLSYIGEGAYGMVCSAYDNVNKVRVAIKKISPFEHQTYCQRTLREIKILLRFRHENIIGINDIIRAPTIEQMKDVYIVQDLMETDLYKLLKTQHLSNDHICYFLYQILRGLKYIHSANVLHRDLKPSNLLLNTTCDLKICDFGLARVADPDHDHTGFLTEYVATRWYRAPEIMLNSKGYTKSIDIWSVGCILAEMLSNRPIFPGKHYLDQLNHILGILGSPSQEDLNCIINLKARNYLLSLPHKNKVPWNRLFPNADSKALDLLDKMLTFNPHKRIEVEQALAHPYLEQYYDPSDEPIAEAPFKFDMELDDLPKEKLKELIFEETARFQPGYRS
One number for each entry, as −log10 of the molar value.

In the examples that follow, each entry is paired with its recorded pIC50.
>>> test_value("CCn1ncc2cc3nc(c21)/C=C\\COC(C)(C)[C@H](c1ccccc1)NC(=O)N3")
6.20
>>> test_value("Cn1ncc2cc3nc(c21)OCCC[C@@H](O)[C@H](c1ccccc1)NC(=O)N3")
6.72

Each of the following entries comes with a recorded value; kindly state pIC50 for each.
1. CN1CCCC(c2ccccc2)NC(=O)Nc2cc3cnn(C)c3c(n2)C1 (stereo not shown)
2. Cn1ncc2cc3nc(c21)CNCCCC(c1ccccc1)NC(=O)N3 (stereo not shown)

Reply text:
[6.56, 6.08]
